target: C-X-C chemokine receptor type 6 (Homo sapiens) (UniProt O00574); assay: antagonist selectivity across CCR6, CXCR5 and CXCR6 – cell-based, CHO-K1 PathHunter beta-arrestin, luminescence, selectivity assay for CXCR6 antagonist project, profiling panel (AID 651601); settings: antagonist mode, CXCR6, run 3
Sequence (O00574 whole entry, looked up): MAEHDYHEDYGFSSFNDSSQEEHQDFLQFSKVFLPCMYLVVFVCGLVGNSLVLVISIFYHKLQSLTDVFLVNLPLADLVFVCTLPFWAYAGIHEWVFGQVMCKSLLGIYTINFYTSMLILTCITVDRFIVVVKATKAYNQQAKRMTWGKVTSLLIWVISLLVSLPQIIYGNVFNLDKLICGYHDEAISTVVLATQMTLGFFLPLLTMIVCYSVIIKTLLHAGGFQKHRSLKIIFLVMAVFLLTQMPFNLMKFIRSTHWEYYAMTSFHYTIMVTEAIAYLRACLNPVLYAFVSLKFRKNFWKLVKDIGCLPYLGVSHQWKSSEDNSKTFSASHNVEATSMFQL
MEASURED ENDPOINT: IC50

Solved cases below.
{"columns": ["COMPOUND", "RECORDED RESULT"],
 "data": [
  ["COc1cccc(C(=O)NC2CC3CCCC(C2)N3CC(=O)Nc2ccccc2C(F)(F)F)c1 (stereo unspecified)", "> 80 µM"],
  ["CN(C)c1ccc(NC(=O)CN2C3CCCC2CC(NC(=O)c2ccccc2)C3)cc1 (stereo unspecified)", "> 80 µM"],
  ["COc1cccc(C(=O)NC2CC3CCCC(C2)N3CC(=O)Nc2ccc(N(C)C)cc2)c1 (stereo unspecified)", "> 80 µM"],
  ["COc1cc(C(=O)NC2CC3CCCC(C2)N3CC(=O)Nc2ccccc2)cc(OC)c1OC (stereo unspecified)", "5.86 µM"],
  ["O=C(CN1C2CCCC1CC(NC(=O)c1ccccc1)C2)Nc1ccccc1C(F)(F)F (stereo unspecified)", "> 80 µM"]
]}

Then there is this compound:
// query IC50 value for entry O=C(CN1C2CCCC1CC(NC(=O)c1ccccc1)C2)Nc1ccccc1 (stereo unspecified) > 80 µM

----------
target: C-X-C chemokine receptor type 6 (Homo sapiens) (UniProt O00574); test: antagonist selectivity across CCR6, CXCR5 and CXCR6 – cell-based, CHO-K1 PathHunter beta-arrestin, luminescence, selectivity assay for CXCR6 antagonist project, profiling panel (AID 651601); settings: antagonist mode, CXCR6, run 2
MEASURED ENDPOINT: IC50

{"columns": ["COMPOUND", "TARGET SYSTEM", "IC50"],
 "data": [
  ["COc1cccc(C(=O)NC2CC3CCCC(C2)N3CC(=O)Nc2ccc(N(C)C)cc2)c1 (stereo unspecified)", "C-X-C chemokine receptor type 6 (Homo sapiens) (UniProt O00574)", "> 80 µM"]
]}

// query IC50 value for entry COc1cc(C(=O)NC2CC3CCCC(C2)N3CC(=O)Nc2ccccc2)cc(OC)c1OC (stereo unspecified) 5.96 µM

Note, next up: O=C(CN1C2CCCC1CC(NC(=O)c1ccccc1)C2)Nc1ccccc1 (stereo unspecified) > 80 µM

Note, next up: CN(C)c1ccc(NC(=O)CN2C3CCCC2CC(NC(=O)c2ccccc2)C3)cc1 (stereo unspecified) > 80 µM

Note, next up: COc1cccc(C(=O)NC2CC3CCCC(C2)N3CC(=O)Nc2ccccc2C(F)(F)F)c1 (stereo unspecified) > 80 µM

Note, next up: O=C(CN1C2CCCC1CC(NC(=O)c1ccccc1)C2)Nc1ccccc1C(F)(F)F (stereo unspecified) > 80 µM

----------
Documented pIC50 across a set of compounds
biological target: C-X-C chemokine receptor type 6 (Homo sapiens) (UniProt O00574); test: antagonist selectivity across CCR6, CXCR5 and CXCR6 – cell-based, CHO-K1 PathHunter beta-arrestin, luminescence, selectivity assay for CXCR6 antagonist project, profiling panel (AID 651601); details: antagonist mode, CXCR6, run 1
pIC50: −log10 of the molar value.

{"columns": ["COMPOUND", "pIC50"],
 "data": [
  ["COc1cccc(C(=O)NC2CC3CCCC(C2)N3CC(=O)Nc2ccc(N(C)C)cc2)c1 (stereo unspecified)", "< 4.10"],
  ["CN(C)c1ccc(NC(=O)CN2C3CCCC2CC(NC(=O)c2ccccc2)C3)cc1 (stereo unspecified)", "< 4.10"],
  ["COc1cc(C(=O)NC2CC3CCCC(C2)N3CC(=O)Nc2ccccc2)cc(OC)c1OC (stereo unspecified)", 5.32],
  ["O=C(CN1C2CCCC1CC(NC(=O)c1ccccc1)C2)Nc1ccccc1 (stereo unspecified)", "< 4.10"],
  ["O=C(CN1C2CCCC1CC(NC(=O)c1ccccc1)C2)Nc1ccccc1C(F)(F)F (stereo unspecified)", "< 4.10"]
]}

Then there is this compound:
// query pIC50 value for entry COc1cccc(C(=O)NC2CC3CCCC(C2)N3CC(=O)Nc2ccccc2C(F)(F)F)c1 (stereo unspecified) < 4.10

----------
molecular target: C-C chemokine receptor type 6 (Homo sapiens) (UniProt P51684); assay: antagonist selectivity across CCR6, CXCR5 and CXCR6 – cell-based, CHO-K1 PathHunter beta-arrestin, luminescence, selectivity assay for CXCR6 antagonist project, profiling panel (AID 651601); conditions: antagonist mode, CCR6, mean of runs, mean IC50 across replicates
Sequence (P51684 whole entry, looked up): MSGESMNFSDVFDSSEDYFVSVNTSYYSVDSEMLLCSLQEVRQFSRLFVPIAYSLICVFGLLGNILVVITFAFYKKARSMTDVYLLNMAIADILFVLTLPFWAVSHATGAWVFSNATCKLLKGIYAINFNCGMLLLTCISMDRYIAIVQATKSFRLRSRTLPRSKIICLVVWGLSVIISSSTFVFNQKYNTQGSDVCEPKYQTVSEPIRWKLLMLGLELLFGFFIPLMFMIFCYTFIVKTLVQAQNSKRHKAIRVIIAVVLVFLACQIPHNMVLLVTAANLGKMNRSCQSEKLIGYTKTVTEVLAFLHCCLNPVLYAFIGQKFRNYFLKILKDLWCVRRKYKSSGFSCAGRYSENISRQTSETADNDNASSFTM
Documented IC50 across a set of molecules

{"columns": ["MOLECULE", "MEASURED ENDPOINT", "RECORDED RESULT"],
 "data": [
  ["O=C(CN1C2CCCC1CC(NC(=O)c1ccccc1)C2)Nc1ccccc1 (stereo unspecified)", "IC50", "> 80 µM"]
]}

// query IC50 value for entry CN(C)c1ccc(NC(=O)CN2C3CCCC2CC(NC(=O)c2ccccc2)C3)cc1 (stereo unspecified) > 80 µM

Note, next up: O=C(CN1C2CCCC1CC(NC(=O)c1ccccc1)C2)Nc1ccccc1C(F)(F)F (stereo unspecified) > 80 µM

Note, next up: COc1cccc(C(=O)NC2CC3CCCC(C2)N3CC(=O)Nc2ccc(N(C)C)cc2)c1 (stereo unspecified) > 80 µM

Note, next up: COc1cc(C(=O)NC2CC3CCCC(C2)N3CC(=O)Nc2ccccc2)cc(OC)c1OC (stereo unspecified) > 80 µM

Note, next up: COc1cccc(C(=O)NC2CC3CCCC(C2)N3CC(=O)Nc2ccccc2C(F)(F)F)c1 (stereo unspecified) > 80 µM

Source of measurements: PubChem BioAssay AID651601
